system: 22 cell lines derived from NSCLC, colon, pancreatic, and breast tumors; assay: cells; conditions: Homo sapiens, read-out: IC50 value
RECORDED_ENDPOINT: IC50

Quick check: IC50 of "C#Cc1cccc(Nc2ncnc3cc(OCCOC)c(OCCOC)cc23)c1" ?
> 10 µM
